- EXPERIMENTAL PROTOCOL: Toxicokinetics after escalating intravenous doses of CKLP1 in beagles
- Format: in vivo, beagle dog
- COND: male, beagle, dog, in vivo, iv, 0.5 mg/kg
READOUT: Vd
Just the number plus its unit, please.

For CC1(C)Oc2ccc(C#N)cc2[C@@H](N2CCCC2=O)[C@@H]1OP(=O)(O)O , write its Vd.
0.143 L/kg

###

- EXPERIMENTAL PROTOCOL: Plasma pharmacokinetics, 28-day topical ophthalmic dosing in beagle dogs
- COND: male, beagle, dog, in vivo, topical or ocular, 0.2 mg/kg, Cmax
READOUT: Cmax (ng/mL)
Field format: number, assumed ng/mL, no unit text.

For CC1(C)Oc2ccc(C#N)cc2[C@@H](N2CCCC2=O)[C@@H]1OP(=O)(O)O [CKLP1] , write its Cmax.
36.5

###

- EXPERIMENTAL PROTOCOL: Plasma pharmacokinetics of CKLP1 and levcromakalim after topical dosing in hound dogs
- Format: in vivo, hound dog
- COND: levcromakalim after topical 10 mM CKLP1 once daily; Day 8
- Description: To assess the pharmacokinetic parameters, hound dogs (n=3) were treated with 50 μL topical ocular administration of 10 mM CKLP1 or vehicle (PBS) (n=2) in both eyes, once daily for eight days. […] Immediately prior to analysis, tissues were thawed and their weight was measured. […] Data were acquired and analyzed using Waters MassLynx v4.1 software.
READOUT: Tlast (min)
Field format: number, assumed min, no unit text.

For CC1(C)Oc2ccc(C#N)cc2[C@@H](N2CCCC2=O)[C@@H]1O [Levcromakalim, levcromakalim, reference compound] , write its Tlast.
240

###

- EXPERIMENTAL PROTOCOL: Plasma pharmacokinetics, 28-day topical ophthalmic dosing in beagle dogs
- COND: beagle, dog, in vivo, mean T1/2 of CKLP1
- Experimental: In the study, dogs (3 males and 3 females) received bilateral daily topical administration of 40 μL/eye of 2.0%, 4.0%, or 8.0% as measured in mg/mL (equivalent to 0.8, 1.6, or 3.2 mg CKLP1 per eye) of CKLP1 in phosphate buffered saline. […]
READOUT: half-life

For CC1(C)Oc2ccc(C#N)cc2[C@@H](N2CCCC2=O)[C@@H]1OP(=O)(O)O , write its half-life.
3.32 to 6.18 h

###

- EXPERIMENTAL PROTOCOL: Plasma pharmacokinetics of CKLP1 and levcromakalim after topical dosing in hound dogs
- Type: in vivo, hound dog
- COND: hound, dog, plasma, topical or ocular, 10 mM CKLP1, 50 µL in each of both eyes, levcromakalim after topical 10 mM CKLP1 once daily; Day 4
READOUT: Cmax (ng/mL)
Field format: number, assumed ng/mL, no unit text.

For CC1(C)Oc2ccc(C#N)cc2[C@@H](N2CCCC2=O)[C@@H]1O [Levcromakalim, levcromakalim, reference compound] , write its Cmax.
1.4

###

- EXPERIMENTAL PROTOCOL: Plasma pharmacokinetics, 28-day topical ophthalmic dosing in beagle dogs
- COND: male, beagle, dog, in vivo, topical or ocular, 0.41 mg/kg, Cmax
READOUT: Cmax
Just the number plus its unit, please.

For CC1(C)Oc2ccc(C#N)cc2[C@@H](N2CCCC2=O)[C@@H]1OP(=O)(O)O , write its Cmax.
73.7 ng/mL

###

- EXPERIMENTAL PROTOCOL: Toxicokinetics after escalating intravenous doses of CKLP1 in beagles
- Format: in vivo, beagle dog
- COND: male, beagle, dog, in vivo, iv, 1.5 mg/kg
Listed here: items and their measured Cmax.
Field format: number, assumed ng/mL, no unit text.

COMPOUND | Cmax (ng/mL)
CC1(C)Oc2ccc(C#N)cc2[C@@H](N2CCCC2=O)[C@@H]1OP(=O)(O)O | 7690

Here's the next entry for you.
For CC1(C)Oc2ccc(C#N)cc2[C@@H](N2CCCC2=O)[C@@H]1O [Levcromakalim, levcromakalim, reference compound] , write its Cmax.
18.0
